Biological target: human nicotinic acetylcholine receptor subtype a4b2 (Homo sapiens, UniProt P17787+P43681)
Construct: expressed in transfected cells
Sequence (P43681 29-627 limits assumed): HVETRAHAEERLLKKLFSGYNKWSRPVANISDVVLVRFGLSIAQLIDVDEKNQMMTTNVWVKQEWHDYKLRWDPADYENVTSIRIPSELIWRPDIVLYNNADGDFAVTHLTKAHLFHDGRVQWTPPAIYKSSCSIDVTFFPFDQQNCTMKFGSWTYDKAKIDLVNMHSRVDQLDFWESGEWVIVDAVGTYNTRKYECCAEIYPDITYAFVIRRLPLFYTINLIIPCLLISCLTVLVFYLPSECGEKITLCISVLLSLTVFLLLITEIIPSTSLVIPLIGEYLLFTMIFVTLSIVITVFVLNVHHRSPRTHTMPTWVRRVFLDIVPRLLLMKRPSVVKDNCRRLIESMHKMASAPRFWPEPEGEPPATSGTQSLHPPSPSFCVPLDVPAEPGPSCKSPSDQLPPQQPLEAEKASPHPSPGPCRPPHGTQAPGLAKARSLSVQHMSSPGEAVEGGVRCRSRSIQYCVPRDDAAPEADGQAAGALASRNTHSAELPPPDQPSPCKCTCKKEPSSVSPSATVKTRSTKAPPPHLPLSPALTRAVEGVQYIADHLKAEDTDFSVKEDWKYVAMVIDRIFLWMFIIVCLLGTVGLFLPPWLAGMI
Sequence (P17787 26-502): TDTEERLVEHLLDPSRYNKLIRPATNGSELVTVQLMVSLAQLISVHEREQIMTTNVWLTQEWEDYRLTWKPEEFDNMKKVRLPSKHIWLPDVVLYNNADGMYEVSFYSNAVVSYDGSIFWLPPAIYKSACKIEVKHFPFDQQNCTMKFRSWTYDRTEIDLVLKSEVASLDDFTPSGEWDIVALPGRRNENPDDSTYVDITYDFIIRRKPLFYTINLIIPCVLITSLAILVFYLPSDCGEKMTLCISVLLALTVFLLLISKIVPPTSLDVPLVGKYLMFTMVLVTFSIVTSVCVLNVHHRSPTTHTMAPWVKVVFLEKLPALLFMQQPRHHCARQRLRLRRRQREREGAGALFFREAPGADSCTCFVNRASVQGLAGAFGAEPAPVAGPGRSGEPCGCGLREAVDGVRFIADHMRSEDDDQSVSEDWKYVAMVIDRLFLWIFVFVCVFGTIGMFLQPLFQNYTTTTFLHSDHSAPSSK
Experiment: FLIPR nAChR a4b2 positive allosteric modulator activity (modulation of nicotine-induced response)
Format: cell-based
Settings: shift of nicotine pEC50 in the presence of 10 μM test compound compared to nicotine alone, HEK-293 cells stably expressing hα4β2
So I've got a bunch of compounds here, and I need their Delta pEC50 values.
Answer with a bare number; do not write a unit.

Which Delta pEC50 value belongs to N#Cc1cccc(-n2nnc(-c3ccc(F)nc3)n2)c1 [Compound 2.10] ?
1.3

Which Delta pEC50 value belongs to N#Cc1cccc(-c2nnn(-c3cccnc3)n2)c1 [Compound 2.2] ?
1.9

Which Delta pEC50 value belongs to N#Cc1cccc(-n2nnc(-c3cncc(F)c3)n2)c1 [Compound 2.9] ?
1.6

Which Delta pEC50 value belongs to Cl.N#Cc1cccc(-c2nnn(-c3ccc(F)nc3)n2)c1 [Compound 2.3] ?
1.7
